experiment: Toxicity liver stage against HepG2, at 10uM; type: cell-based; design: test concentration 10 uM, cell line HepG2-A16-CD81EGFP; conditions: human, HepG2-A16-CD81EGFP cells; read-out: INHIBITION
Hi there, I'd appreciate the recorded cytotoxicity at 10 µM for every entry that follows.
Kindly provide the numeric value in % only, without the unit symbol.

Recorded cytotoxicity at 10 µM for Cc1nnn2c1COC(CNC(=O)c1cccn1C)C2 (stereo unspecified) , please?
6.09

Recorded cytotoxicity at 10 µM for O=C(O)COc1ccc(CN2CCCC(CCc3ccccc3)C2)cc1 (stereo unspecified) , please?
12.1

Recorded cytotoxicity at 10 µM for `Cc1ccccc1N1CCCN(C(=O)CCc2cccnc2)CC1` , please?
-9.2

Recorded cytotoxicity at 10 µM for `CN(C)Cc1cc(CC2(NCc3ccccc3Cl)COC2)no1` , please?
4.14

Recorded cytotoxicity at 10 µM for CN(C(=O)Nc1ccncc1)C1CCN(c2ccccc2)C1=O (stereo unspecified) , please?
-10.1

Recorded cytotoxicity at 10 µM for `COCCNC(=O)CCN1C(=O)CC2(CCCC2)C1=O` , please?
2.34

====

Hi there, I'd appreciate the recorded cytotoxicity at 10 µM for every entry that follows.
test: Toxicity liver stage against HepG2, at 10uM; type: cell-based; design: test concentration 10 uM, cell line HepG2-A16-CD81EGFP; settings: human, HepG2-A16-CD81EGFP cells; read-out: INHIBITION
Kindly provide the numeric value in % only, without the unit symbol.

Recorded cytotoxicity at 10 µM for CN(C)CC1(O)CCN(C(=O)Cc2ccc3ccccc3c2)C1 (configuration not stated) , please?
-6.77

Recorded cytotoxicity at 10 µM for `COCCC(=O)Nc1cc(CC(C)(C)C)n[nH]1` , please?
3.97

Recorded cytotoxicity at 10 µM for `Cc1cc(C)n(CC(=O)N2CCC(NS(=O)(=O)c3ccccc3)CC2)n1` , please?
4.59

Recorded cytotoxicity at 10 µM for CC(C)C(NC(=O)C1CC1)c1cc(O)nc(-c2cccnc2)n1 (configuration not stated) , please?
5.18

Recorded cytotoxicity at 10 µM for COc1cc(CNCC(O)c2ccc(F)cc2F)cc2c1OCO2 (configuration not stated) , please?
-1.37

Recorded cytotoxicity at 10 µM for NC(=O)C1CCCN(C(=O)c2ccc(-n3ccnc3)cc2)C1 (configuration not stated) , please?
-4.4

Recorded cytotoxicity at 10 µM for COc1nc2c(cc1C(=O)N1CCCOC(Cn3cccn3)C1)CCC2 (configuration not stated) , please?
-52.1

Recorded cytotoxicity at 10 µM for `O=C(c1ccoc1)N(Cc1ccccn1)C1CC1` , please?
-15

Recorded cytotoxicity at 10 µM for `O=S1(=O)CCN(c2nc(C3CC3)ns2)CC1` , please?
2.37

Recorded cytotoxicity at 10 µM for `CC(=O)Nc1ccc(C(=O)Nc2cnc3n2CCCC3)cc1C` , please?
0.271

Recorded cytotoxicity at 10 µM for CC(CCNC(=O)N1CCC1)N(C)C(=O)OC(C)(C)C (configuration not stated) , please?
-5.61

Recorded cytotoxicity at 10 µM for Cn1cc(CN2CCCC(CCc3c(F)cccc3F)C2)cn1 (configuration not stated) , please?
-7.55

====

assay: Toxicity liver stage against HepG2, at 10uM; assay type: cell-based; parameters: test concentration 10 uM, cell line HepG2-A16-CD81EGFP; conditions: human, HepG2-A16-CD81EGFP cells; read-out: INHIBITION
Hi there, I'd appreciate the recorded cytotoxicity at 10 µM for every entry that follows.
Kindly provide the numeric value in % only, without the unit symbol.

Recorded cytotoxicity at 10 µM for `CS(=O)(=O)CCn1ccc(NC(=O)Cc2ccccc2Cl)n1` , please?
13.6

Recorded cytotoxicity at 10 µM for `CN1CCCC[C@@H]2[C@H]1[C@@H](c1ccccc1)CCN2C(=O)c1ccncc1` , please?
-13

Recorded cytotoxicity at 10 µM for `Cc1ccn(-c2ccccc2NCc2ncc[nH]2)n1` , please?
-5.95

Recorded cytotoxicity at 10 µM for `Cc1cccc(O[C@H]2COCCN(C3CCOCC3)C2)n1` , please?
9.09

Recorded cytotoxicity at 10 µM for `CN(C)S(=O)(=O)NCC1CCN(Cc2ccccc2F)CC1` , please?
-0.768

Recorded cytotoxicity at 10 µM for CC(C)(C)c1nc(CN(Cc2cccnc2)C2CN3CCC2CC3)no1 (stereo unspecified) , please?
-4.09

Recorded cytotoxicity at 10 µM for Nc1ccnc(C(=O)N2CCCC3(CCC(=O)N(C4CCCC4)C3)C2)c1 (stereo unspecified) , please?
-19.8

Recorded cytotoxicity at 10 µM for CC(=O)N(Cc1ncc(C)o1)C1CCN(Cc2nnc(C3CC3)o2)C1 (stereo unspecified) , please?
5.08

Recorded cytotoxicity at 10 µM for `COCC(=O)N1CCC(C(=O)c2cc(C)cnc2N)CC1` , please?
0.353

Recorded cytotoxicity at 10 µM for CC(Oc1ccc(C(=O)NCCNS(C)(=O)=O)cn1)c1ccccc1 (stereo unspecified) , please?
7.44

Recorded cytotoxicity at 10 µM for Cc1ccc(CNC(=O)N2CCc3ccccc3C2CO)s1 (stereo unspecified) , please?
2
